The measurements presented in this section are drawn from the supplement of paper PMC12024529.

# Test system: HEK293 WT BDD-FVIII-Gluc
# assay_notes: secreted FVIII-Gluc luciferase Z-score vs DMSO control; higher = more FVIII-Gluc secretion
# condition_parameters: 5 µM
Hi there, I'd appreciate the recorded secreted FVIII-Gluc luciferase Z-score for every entry that follows.
Form rule: numeric answer, no unit written next to it.

Incoming: Give secreted FVIII-Gluc luciferase Z-score for the following compound: "COc1cc2c3cc1Oc1c(OC)c(OC)cc4c1[C@@H](Cc1ccc(O)c(c1)Oc1ccc(cc1)C[C@@H]3N(C)CC2)N(C)CC4"
Outgoing: 0.165

Incoming: Give secreted FVIII-Gluc luciferase Z-score for the following compound: CC(Cc1ccc(O)c(O)c1)C(C)Cc1ccc(O)c(O)c1 (centres undefined)
Outgoing: 0.14

Incoming: Give secreted FVIII-Gluc luciferase Z-score for the following compound: COc1ccc(C2OCC3(COC(C)=O)C(C)C=C(C)C2C3C)cc1 (centres undefined)
Outgoing: -1.63

Incoming: Give secreted FVIII-Gluc luciferase Z-score for the following compound: "CC1(C)[C@@H](O)CC[C@]2(C)[C@H]3C(=O)C=C4[C@@H]5C[C@@](C)(C(=O)O)CC[C@]5(C)CC[C@@]4(C)[C@]3(C)CC[C@@H]12"
Outgoing: 0.00884

Incoming: Give secreted FVIII-Gluc luciferase Z-score for the following compound: "CC(C)[C@@H](C)/C=C/[C@@H](C)[C@H]1CC[C@H]2C3=CC=C4C[C@@H](O)CC[C@]4(C)[C@H]3CC[C@]12C"
Outgoing: 0.958

Incoming: Give secreted FVIII-Gluc luciferase Z-score for the following compound: C[C@H]1c2ccoc2CC2[C@H]1CCC1[C@@](C)(CC(=O)O)CCC[C@]21C (some centres undefined)
Outgoing: 0.392

Incoming: Give secreted FVIII-Gluc luciferase Z-score for the following compound: CC12CCC3c4ccc(O)cc4CCC3C1CCC2=O (centres undefined)
Outgoing: 0.301

Incoming: Give secreted FVIII-Gluc luciferase Z-score for the following compound: "Nc1ncnc2c1ncn2[C@@H]1O[C@H](CO)[C@@H](O)[C@H]1O"
Outgoing: 0.566

Incoming: Give secreted FVIII-Gluc luciferase Z-score for the following compound: "N[C@@H](Cc1c[nH]cn1)C(=O)O"
Outgoing: 0.64

Incoming: Give secreted FVIII-Gluc luciferase Z-score for the following compound: O=C1C=CC2=C3c4cc(O)c(O)cc4CC3(O)COC2=C1O (centres undefined)
Outgoing: 0.729

Incoming: Give secreted FVIII-Gluc luciferase Z-score for the following compound: "O=C1C[C@@H]2[C@@H](CO)[C@H](O)C[C@@H]2O1"
Outgoing: 0.258

Incoming: Give secreted FVIII-Gluc luciferase Z-score for the following compound: "COc1cc(O)c2c(=O)cc(-c3ccccc3)oc2c1"
Outgoing: 1.12

Incoming: Give secreted FVIII-Gluc luciferase Z-score for the following compound: "C[C@H]1O[C@@H](O[C@H]2[C@@H](O)C[C@H](O[C@H]3[C@@H](O)C[C@H](O[C@H]4CC[C@@]5(C)[C@H](CC[C@@H]6[C@@H]5CC[C@]5(C)[C@@H](C7=CC(=O)OC7)CC[C@]65O)C4)O[C@@H]3C)O[C@@H]2C)C[C@H](O)[C@@H]1O"
Outgoing: -4.57

Incoming: Give secreted FVIII-Gluc luciferase Z-score for the following compound: CC1=C(C2=C(C)C(C(C)C)C3=C(C(=O)C(O)C3O)C2O)C(O)C2=C(C(O)C(O)C2=O)C1C(C)C (centres undefined)
Outgoing: -0.542

Incoming: Give secreted FVIII-Gluc luciferase Z-score for the following compound: OCC1OC(n2cnc3cncnc32)C(O)C1O (centres undefined)
Outgoing: -0.247

Incoming: Give secreted FVIII-Gluc luciferase Z-score for the following compound: "COc1ccc2c(=O)c(-c3ccccc3)coc2c1"
Outgoing: 1.15

Incoming: Give secreted FVIII-Gluc luciferase Z-score for the following compound: "Cc1cc(=O)cc2oc3cc(N)c(-c4c(C)cc(O)cc4O)c(C)c3nc1-2"
Outgoing: -0.31

Incoming: Give secreted FVIII-Gluc luciferase Z-score for the following compound: COC(=O)C1(O)CC(O)C(NC(C)=O)C(C(O)C(O)CO)O1 (centres undefined)
Outgoing: 0.68

Incoming: Give secreted FVIII-Gluc luciferase Z-score for the following compound: "O=c1cc(-c2ccccc2O)oc2ccc3ccccc3c12"
Outgoing: 0.197
